# Tested on: acrA efflux pump deletion mutant of E. coli
# experimental-context: acrA mutant versus wild-type E. coli
Listed here: items and their measured reduction of the viabilities of the acrA deletion mutant treated by the conjugates.
Reply with the number and its unit after it.

{"compound": "NCCCCC(NC(=O)C(CCCCN)NC(=O)CCC(=O)OCC(NC(=O)C(Cl)Cl)C(O)c1ccc([N+](=O)[O-])cc1)C(=O)O (stereo not shown) [Compound 2b]", "result": "20%"}
{"compound": "O=C(CCC(=O)OCC(NC(=O)C(Cl)Cl)C(O)c1ccc([N+](=O)[O-])cc1)NCC(=O)NC(CO)C(=O)O (stereo not shown) [Compound 1c]", "result": "30%"}
{"compound": "NCCCCC(NC(=O)C(CCCCN)NC(=O)CCC(=O)OCC(NC(=O)C(Cl)Cl)C(O)c1ccc([N+](=O)[O-])cc1)C(=O)O (stereo not shown) [Compound 2c]", "result": "50%"}

// next item, reduction of the viabilities of the acrA deletion mutant treated by the conjugates requested
So what's the measured reduction of the viabilities of the acrA deletion mutant treated by the conjugates for this one? O=C(O)CNC(=O)C(CO)NC(=O)CCC(=O)OCC(NC(=O)C(Cl)Cl)C(O)c1ccc([N+](=O)[O-])cc1 (stereo not shown) [Compound 1d] 40%
